Data provenance: the supplement of paper PMC6757056

Record form. Attribute: normalized RNA/DNA level without ligand (log10). Fill in for each entry.
B1: library; a variant is named by its letters at N, in order (parent)
chain: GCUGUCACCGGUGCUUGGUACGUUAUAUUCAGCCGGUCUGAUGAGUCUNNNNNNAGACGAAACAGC

# Variants of: B1
# procedureText: normalized RNA/DNA level without ligand (relative to sTRSVctl = 100) (log10 (% of sTRSVctl)); HEK293T overexpressing SLC46A1; higher = less ribozyme self-cleavage, higher mRNA level
# testConditions: without (6R,S)-folinic acid; ligand present: no
Number only, no unit.

What does the data say about its normalized RNA/DNA level without ligand (log10)? Entry: CCAGAG
1.91

Please do the same for UCAUCU as well.
2.06

Please do the same for GACUUG as well.
1.96

Please do the same for GUGGCG as well.
1.99

Please do the same for UUACUC as well.
2.05

Please do the same for UGGGGU as well.
1.94

Please do the same for GUUACC as well.
2.05

Please do the same for UAGCCA as well.
2.03

Please do the same for CGGGCG as well.
1.99

Please do the same for UUUAAG as well.
1.77

Please do the same for UAUAGU as well.
1.87

Please do the same for UUGUGU as well.
2.03

Please do the same for ACCAGC as well.
2.07

Please do the same for ACUAUG as well.
1.9
